Values were extracted from ChEMBL document CHEMBL1140872.

Target: Dual specificity mitogen-activated protein kinase kinase 6 (Homo sapiens)
Sequence (whole entry): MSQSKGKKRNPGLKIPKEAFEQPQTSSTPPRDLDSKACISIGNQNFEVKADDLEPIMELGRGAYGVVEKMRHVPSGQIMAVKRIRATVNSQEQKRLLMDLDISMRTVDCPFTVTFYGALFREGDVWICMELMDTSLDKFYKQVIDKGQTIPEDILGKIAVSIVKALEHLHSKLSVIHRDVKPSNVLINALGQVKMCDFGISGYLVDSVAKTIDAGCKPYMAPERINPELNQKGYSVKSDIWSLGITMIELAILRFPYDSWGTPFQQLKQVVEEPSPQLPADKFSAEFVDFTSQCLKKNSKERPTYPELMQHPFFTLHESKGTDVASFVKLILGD
Assay: Binding affinity to human recombinant MAP2K6 expressed in Escherichia coli assessed as thermal shift by differential scanning fluorimetry
parameter-measured: Tm

Reference set (2 entries):
C[C@H]1CCCC(=O)[C@@H](C)CC/C=C/c2cc(O)cc(O)c2C(=O)O1 = < 2 °C
COc1cc(O)c2c(c1)/C=C/CC[C@H](C)C(=O)CCC[C@H](C)OC2=O = < 2 °C

Continue with the compound presented below.
Problem: Reported Tm for "COc1cc2c(c(OC)c1)C(=O)O[C@@H](C)CCCC(=O)[C@@H](C)CC/C=C/2" : what is it?
Solution: < 2 °C
